Recorded values, source PubChem BioAssay (EPA / NIEHS).

# Read-out: matrix metalloproteinase-3 (MMP3), MMP3 (gene 4314)
# Test Name: LTEA_HepaRG_MMP3: Life Technologies and Expression Analysis (LTEA) Assay for matrix metalloproteinase-3 (MMP3) using HepaRG (AID 2283519)
# Run Parameters: mRNA level, 48 h; actives raise or lower the signal
The source made the active and inactive calls. The calls were made as follows: active = hit-call score of the fitted dose curve at least 0.9, where 1 is the maximum; inactive = score below 0.9.
# output must be one of active, inactive

Compound	Category
COC(=O)C(C)Oc1ccc(Oc2ccc(Cl)cc2Cl)cc1 (stereo not given)	inactive
CCc1nn(C)c(C(=O)NCc2ccc(C(C)(C)C)cc2)c1Cl	inactive
CCNc1nc(Cl)nc(NCC)n1	inactive
CCCCC(CC)COC(=O)c1ccccc1C(=O)OCC(CC)CCCC (stereo not given)	inactive

IN: Any idea what this test logged for Cc1cc(Cl)ccc1OCC(=O)O ?
OUT: inactive

IN: # outcome recorded in this test, key = C=CC1(C)OC(=O)N(c2cc(Cl)cc(Cl)c2)C1=O (stereo not given)
OUT: inactive

IN: Record lookup: outcome of this test for N#Cc1nn(-c2c(Cl)cc(C(F)(F)F)cc2Cl)c(N)c1S(=O)C(F)(F)F (stereo not given) ?
OUT: active

IN: How was Fc1ccc(Oc2ccnc3cc(Cl)cc(Cl)c23)cc1 classified in this test?
OUT: inactive

IN: Write down the call the test reported for this compound. Item: Cc1ccc(-c2c(Cl)nc(C#N)n2S(=O)(=O)N(C)C)cc1
OUT: inactive

IN: Name the outcome recorded for CCOP(=S)(OCC)SCn1c(=O)oc2cc(Cl)ccc21 in the assay.
OUT: inactive

----------
# Read-out: Heat shock 70 kDa protein 1 (HSPA1A), gene 3303
# Test Name: LTEA_HepaRG_HSPA1A: Life Technologies and Expression Analysis (LTEA) Assay for Heat shock 70 kDa protein 1 (HSPA1A) using HepaRG (AID 2283502)
# Run Parameters: mRNA level, 48 h; actives raise or lower the signal
# Method: LTEA_HepaRG is a cell based, multiplexed-readout assay that uses HepaRG, a human liver cell line, with measurements taken at 48 hours after chemical dosing on a 96-well plate.LTEA_HepaRG_HSPA1A is one of 102 assay component(s) measured in the LTEA HepaRG cell culture assay. It is a marker of Oxidative Stress.Data from the assay component LTEA_HepaRG_HSPA1A was analyzed into 1 endpoint. […]
Activity calls are given as the source filed them. Rule for the calls: active = hit-call score of the fitted dose curve at least 0.9, where 1 is the maximum; inactive = score below 0.9.
Hi! Could you answer with just one of these? true (1) = active, false (0) = inactive

These recorded examples may help you get a feel for the data.
Compound	Category
CCNc1nc(Cl)nc(NC(C)C)n1	false (0)
COC(=O)N(OC)c1ccccc1COc1ccn(-c2ccc(Cl)cc2)n1	true (1)
CCON=C(CC)C1=C(O)CC(c2c(C)cc(C)cc2C)CC1=O (stereo not given)	false (0)
CCCC1COC(Cn2cncn2)(c2ccc(Cl)cc2Cl)O1 (stereo not given)	true (1)
C=CC1(C)OC(=O)N(c2cc(Cl)cc(Cl)c2)C1=O (stereo not given)	false (0)

IN: Check the results log: what was the call for C#CCOS(=O)OC1CCCCC1Oc1ccc(C(C)(C)C)cc1 (stereo not given) ?
OUT: true (1)

IN: Dear colleague, could you share the recorded outcome for N#CC(CCc1ccc(Cl)cc1)(Cn1cncn1)c1ccccc1 (stereo not given) when you have a moment?
OUT: true (1)

IN: What classification did CCCCC(CC)COC(=O)c1ccccc1C(=O)OCC(CC)CCCC (stereo not given) end up with in this test?
OUT: false (0)
